# MEASUREMENT_CONDITIONS: in DMAc, 283.15 K
READOUT_LABEL: solubility (mole fraction)

Prompt: Returns the measured solubility (mole fraction) for the input compound. Input: `Cc1c([N+](=O)[O-])c(C)c([N+](=O)[O-])c(C(C)(C)C)c1[N+](=O)[O-]`
Completion: 0.112

====

# MEASUREMENT_CONDITIONS: in cyclohexane, 288.15 K
READOUT_LABEL: solubility (mole fraction)
Simply state the number, no unit and no words.

Prompt: Returns the measured solubility (mole fraction) for the input molecule. Input: `Cc1c([N+](=O)[O-])c(C)c([N+](=O)[O-])c(C(C)(C)C)c1[N+](=O)[O-]`
Completion: 0.00739

====

# MEASUREMENT_CONDITIONS: in ethyl acetate, 308.15 K
READOUT_LABEL: solubility (mole fraction)

Prompt: Returns the measured solubility (mole fraction) for the input compound. Input: `Cc1c([N+](=O)[O-])c(C)c([N+](=O)[O-])c(C(C)(C)C)c1[N+](=O)[O-]`
Completion: 0.233

====

# MEASUREMENT_CONDITIONS: in cyclohexane, 303.15 K
READOUT_LABEL: solubility (mole fraction)
Simply state the number, no unit and no words.

Prompt: Returns the measured solubility (mole fraction) for the input molecule. Input: `Cc1c([N+](=O)[O-])c(C)c([N+](=O)[O-])c(C(C)(C)C)c1[N+](=O)[O-]`
Completion: 0.0145

====

# MEASUREMENT_CONDITIONS: in THF, 293.15 K
READOUT_LABEL: solubility (mole fraction)

Prompt: Returns the measured solubility (mole fraction) for the input compound. Input: `Cc1c([N+](=O)[O-])c(C)c([N+](=O)[O-])c(C(C)(C)C)c1[N+](=O)[O-]`
Completion: 0.112

====

# MEASUREMENT_CONDITIONS: in cyclohexane, 308.15 K
READOUT_LABEL: solubility (mole fraction)
Simply state the number, no unit and no words.

Prompt: Returns the measured solubility (mole fraction) for the input compound. Input: `Cc1c([N+](=O)[O-])c(C)c([N+](=O)[O-])c(C(C)(C)C)c1[N+](=O)[O-]`
Completion: 0.0182

====

# MEASUREMENT_CONDITIONS: in isopropanol, 298.15 K
READOUT_LABEL: solubility (mole fraction)
Simply state the number, no unit and no words.

Prompt: Returns the measured solubility (mole fraction) for the input compound. Input: `Cc1c([N+](=O)[O-])c(C)c([N+](=O)[O-])c(C(C)(C)C)c1[N+](=O)[O-]`
Completion: 0.00343

====

# MEASUREMENT_CONDITIONS: in cyclohexane, 293.15 K
READOUT_LABEL: solubility (mole fraction)

Prompt: Returns the measured solubility (mole fraction) for the input compound. Input: `Cc1c([N+](=O)[O-])c(C)c([N+](=O)[O-])c(C(C)(C)C)c1[N+](=O)[O-]`
Completion: 0.00925

====

# MEASUREMENT_CONDITIONS: in THF, 283.15 K
READOUT_LABEL: solubility (mole fraction)
Simply state the number, no unit and no words.

Prompt: Returns the measured solubility (mole fraction) for the input molecule. Input: `Cc1c([N+](=O)[O-])c(C)c([N+](=O)[O-])c(C(C)(C)C)c1[N+](=O)[O-]`
Completion: 0.0889

====

# MEASUREMENT_CONDITIONS: in THF, 288.15 K
READOUT_LABEL: solubility (mole fraction)
Simply state the number, no unit and no words.

Prompt: Returns the measured solubility (mole fraction) for the input molecule. Input: `Cc1c([N+](=O)[O-])c(C)c([N+](=O)[O-])c(C(C)(C)C)c1[N+](=O)[O-]`
Completion: 0.1

====

# MEASUREMENT_CONDITIONS: in DMAc, 293.15 K
READOUT_LABEL: solubility (mole fraction)
Simply state the number, no unit and no words.

Prompt: Returns the measured solubility (mole fraction) for the input compound. Input: `Cc1c([N+](=O)[O-])c(C)c([N+](=O)[O-])c(C(C)(C)C)c1[N+](=O)[O-]`
Completion: 0.156

====

# MEASUREMENT_CONDITIONS: in n-butanol, 308.15 K
READOUT_LABEL: solubility (mole fraction)
Simply state the number, no unit and no words.

Prompt: Returns the measured solubility (mole fraction) for the input compound. Input: `Cc1c([N+](=O)[O-])c(C)c([N+](=O)[O-])c(C(C)(C)C)c1[N+](=O)[O-]`
Completion: 0.00806

====

# MEASUREMENT_CONDITIONS: in methanol, 293.15 K
READOUT_LABEL: solubility (mole fraction)

Prompt: Returns the measured solubility (mole fraction) for the input molecule. Input: `Cc1c([N+](=O)[O-])c(C)c([N+](=O)[O-])c(C(C)(C)C)c1[N+](=O)[O-]`
Completion: 0.00369

====

# MEASUREMENT_CONDITIONS: in ethanol, 283.15 K
READOUT_LABEL: solubility (mole fraction)
Simply state the number, no unit and no words.

Prompt: Returns the measured solubility (mole fraction) for the input molecule. Input: `Cc1c([N+](=O)[O-])c(C)c([N+](=O)[O-])c(C(C)(C)C)c1[N+](=O)[O-]`
Completion: 0.00207

====

# MEASUREMENT_CONDITIONS: in THF, 313.15 K
READOUT_LABEL: solubility (mole fraction)
Simply state the number, no unit and no words.

Prompt: Returns the measured solubility (mole fraction) for the input compound. Input: `Cc1c([N+](=O)[O-])c(C)c([N+](=O)[O-])c(C(C)(C)C)c1[N+](=O)[O-]`
Completion: 0.173

====

# MEASUREMENT_CONDITIONS: in n-butanol, 278.15 K
READOUT_LABEL: solubility (mole fraction)

Prompt: Returns the measured solubility (mole fraction) for the input compound. Input: `Cc1c([N+](=O)[O-])c(C)c([N+](=O)[O-])c(C(C)(C)C)c1[N+](=O)[O-]`
Completion: 0.00245

====

# MEASUREMENT_CONDITIONS: in DMAc, 298.15 K
READOUT_LABEL: solubility (mole fraction)
Simply state the number, no unit and no words.

Prompt: Returns the measured solubility (mole fraction) for the input molecule. Input: `Cc1c([N+](=O)[O-])c(C)c([N+](=O)[O-])c(C(C)(C)C)c1[N+](=O)[O-]`
Completion: 0.179

====

# MEASUREMENT_CONDITIONS: in isopropanol, 313.15 K
READOUT_LABEL: solubility (mole fraction)
Simply state the number, no unit and no words.

Prompt: Returns the measured solubility (mole fraction) for the input compound. Input: `Cc1c([N+](=O)[O-])c(C)c([N+](=O)[O-])c(C(C)(C)C)c1[N+](=O)[O-]`
Completion: 0.00713
